Please respond with reported viability at 28.5 h, 10 µM for every item in the list.
Measurement description: in vitro
Measurement conditions: human, hela cells, % viability
One number for each entry, in %.

compound="Cc1oc(-c2ccccc2)cc1C(=O)Nc1ccc(N2CCNCC2)nc1 [CBK034127T]" reported_result=80.3
compound="O=C(CCCN1C(=O)/C(=C\\c2cccs2)SC1=S)Nc1cccc(C(=O)O)c1 [CBK263636]" reported_result=98.4
compound="CCCS(=O)(=O)N1Cc2c(ncn2C)C[C@H]1C(=O)OC [CBK288991]" reported_result=90.2
compound="Cc1ncsc1CCOc1nccc(C(F)(F)F)n1 [CBK115798]" reported_result=80.3

Next up:
Exercise: Which viability at 28.5 h, 10 µM is listed for O=C1CC[C@@H](NCc2cccc(O)c2)[C@H](c2cc(F)cc(F)c2)N1 [CBK282909] ?
Key: 98

---

Measurement description: in vitro
Measurement conditions: human, hela cells, % viability
Please respond with reported viability at 28.5 h, 10 µM for every item in the list.
Numbers only, in %.

molecule=COc1cc(C)c(Nc2cc(-c3ccc(F)c(F)c3)ncn2)cc1OC reported_result=73.4
molecule=Cn1c(C2CC2)nc2c1CCN(Cc1cn3cc(Cl)ccc3n1)C2 reported_result=92.8

Exercise: Which viability at 28.5 h, 10 µM is listed for CC(CCO)CNS(=O)(=O)c1ccc(N2CCCC2=O)cc1 (stereo not drawn) ?
Key: 90.5

---

Please respond with reported viability at 28.5 h, 10 µM for every item in the list.
Measurement description: in vitro
Measurement conditions: human, hela cells, % viability
One number for each entry, in %.

Study these solved cases before continuing.
molecule="CC(C(=O)N1CCC(C(=O)c2nccs2)CC1)c1ccccc1 (stereo not shown) [CBK284163]" u=% reported_result=80.8
molecule="COc1ccc(CN2Cc3cccc(C(=O)O)c3C2=O)cc1OC [CBK291237]" u=% reported_result=83.5
molecule="Cc1ccc(Oc2cc(C)c([N+](=O)[O-])cn2)c(Br)c1 [CBK002823]" u=% reported_result=92.2
molecule="Cc1c(Cc2ccccc2)c(N2CCN(C/C=C/c3ccccc3)CC2)n2c(nc3ccccc32)c1C#N [CBK263112]" u=% reported_result=101
molecule="Cn1ccnc1CN1CCCN(C(=O)c2cccc(C#N)c2)CC1 [CBK303998]" u=% reported_result=85.2
molecule="COc1cc2c(cc1OC)C1c3ccccc3NC(c3ccccc3F)N1CC2 (stereo not shown) [CBK286311]" u=% reported_result=98.9
molecule="Cc1cc(C)[n+](-c2ccccc2O)c(C)c1 [CBK005458G]" u=% reported_result=116
molecule="CSc1ccccc1-n1nnnc1SCc1ccccc1 [CBK099033]" u=% reported_result=83

The following molecules each have a reported value; give each one's viability at 28.5 h, 10 µM.
1. c1ccc2cc(-c3cn4ccnc4c(N4CCN(c5ccncc5)CC4)n3)ccc2c1 [CBK066369]
2. Cc1cc(N2CCN(CC(=O)c3ccc(Cl)cc3)CC2)c2ccccc2n1 [CBK066868]

Key:
1. 89.2
2. 106

---

Measurement description: in vitro
Measurement conditions: human, hela cells, % viability
Please respond with reported viability at 28.5 h, 10 µM for every item in the list.
One number for each entry, in %.

Study these solved cases before continuing.
molecule=Cc1ccc(N(CC(=O)O)S(=O)(=O)c2ccc(C)cc2)cc1 readout_type="viability at 28.5 h, 10 µM" reported_result=106
molecule=COC(=O)c1sccc1NS(=O)(=O)c1ccccc1C(F)(F)F readout_type="viability at 28.5 h, 10 µM" reported_result=108
molecule="Cc1cccnc1NC(=O)C(C)Oc1ccccc1 (stereo not drawn)" readout_type="viability at 28.5 h, 10 µM" reported_result=90.2
molecule=CCOc1ccccc1NC(=O)CSc1c[nH]nn1 readout_type="viability at 28.5 h, 10 µM" reported_result=83.3

The following molecules each have a reported value; give each one's viability at 28.5 h, 10 µM.
1. O=C(CC1CCCC1)NCCn1nc(-c2ccco2)ccc1=O
2. Cc1cccc2c1CC(=O)NC21CCN(CC(=O)c2ccc(F)cc2)CC1
3. CCCC(=O)Nc1ccc(C(=O)N2CCN(C)CC2)cc1
4. COc1ccc(Nc2nc(N)nc(CSCCO)n2)cc1

Key:
1: 106; 2: 96; 3: 100; 4: 88.3

Exercise: Which viability at 28.5 h, 10 µM is listed for COc1ccc(Br)cc1CNCCCN1CCOCC1 [CBK278208C] ?
Key: 102
